All values here come from PubChem BioAssay.

experiment: small-molecule microarray binders of probe aShh, primary screen, biochemical, biotinylated probe, 635/667 nm fluorescence (AID 1114); settings: higher = more signal;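 note: probe is biotin-labelled aShh protein from a stem cell growth factor screen; measures binding of labelled protein to compounds printed on the slide; score merges feature fluorescence at 667 nm with signal-to-noise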
MEASURED_ATTRIBUTE: composite z-score

COMPOUND	MEASURED_ATTRIBUTE	MEAS_VALUE
COc1ccc(C(O)C2C=CC3C(=O)N(c4ccccc4)C(=O)C3N2Nc2ccc(C#N)cc2)c2ccccc12 (stereo not given)	composite z-score	-0.0709
COC(=O)[C@@]1(Cc2ccc(F)cc2)[C@H]2c3cc(C(=O)N4CCCC4)n(CCc4c[nH]c5ccc(OC)cc45)c3C[C@H]2CN1C(=O)c1ccccc1	composite z-score	1.17
CCOC(=O)C[C@H]1[C@H](OC(=O)c2ccc(C(=O)c3ccccc3)cc2)[C@@H](NC(=O)c2ccc3ccccc3c2)c2cc(OCCCO)ccc2N1C(=O)c1ccccc1	composite z-score	0.0684
C=CCNC(=O)[C@H]1[C@@H]2C(=O)O[C@@H](c3ccccc3)[C@@H](c3ccccc3)N2[C@@H](c2ccccc2OCCO)[C@]12C(=O)N(C(=O)OCCOC)c1ccc(C#CC3=CCCCC3)cc12	composite z-score	0.0915
[N-]=[N+]=NCc1ccccc1[C@H]1OC(c2ccc(OCCCO)cc2)=N[C@@]1(CCS(=O)(=O)c1ccccc1)C(N)=O	composite z-score	0.265
O=C(O)[C@H](Cc1ccccc1)n1cc(-c2ccccn2)nn1	composite z-score	-0.0866
CC(C)CNC(=O)[C@@H]1c2ccccc2C(=O)N(Cc2cc(F)cc(C(F)(F)F)c2)[C@H]1c1ccc(CO)cc1	composite z-score	0.0639
COc1ccccc1CN1C(=O)c2ccccc2[C@@H](C(=O)NC(C)C)[C@@H]1c1ccc(CO)cc1	composite z-score	0.14
COc1ccc(NN2C(C(O)c3ccccn3)C=CC3C(=O)N(C4CCCCC4)C(=O)C32)cc1 (stereo not given)	composite z-score	0.0875
COCCCNC(=O)[C@@]1(Sc2ccc(C)cc2)CC(=O)N(Cc2cc(C(F)(F)F)cc(C(F)(F)F)c2)[C@@H]1c1ccc(CO)cc1	composite z-score	0.0136
[N-]=[N+]=Nc1ccccc1C[C@@]1(C(=O)O)N=C(c2ccc(OCCCO)cc2)O[C@@H]1c1ccccc1	composite z-score	0.191
COc1ccc([Si](C)(C)[C@@H]2[C@@H](CCn3cc([C@H](O)c4ccccc4)nn3)O[C@]3(C(=O)N(Cc4ccc(N5CCOC5=O)cc4)c4ccccc43)[C@H]2C)cc1	composite z-score	0.0224
CN1C(=O)C2C(C1=O)C1C=C(c3ccc(CO)cc3)C2C(c2cccs2)N1Cc1cccc(OC(F)(F)F)c1 (stereo not given)	composite z-score	-0.0749
C=CCN1Cc2ccccc2C[C@@]2(N=C(c3ccc(OCCCO)cc3)O[C@H]2c2ccccc2)C1=O	composite z-score	0.19
CC(C)C(O)C1C=CC2C(=O)N(C)C(=O)C2N1N(c1ccccc1)c1ccccc1 (stereo not given)	composite z-score	0.14
